The measured values listed here are drawn from patent US20250017914A1.

# TARGET OR SYSTEM: BaF3 BRAF-KIAA1549 fusion cells (Homo sapiens)
# Construct: The BRAF-KIAA1549 fusion mutant was subcloned into pMXs-IRES-Blasticidin (RTV-016, Cell Biolabs, San Diego, CA); No tag given; Q9HCM3 (UPF0606 protein KIAA1549)
# ASSAY TEXT: BaF3 BRAF-KIAA1549 fusion cell proliferation assay (CellTiterGlo, 96 hours)
# Assay type: cell-based
# RUN CONDITIONS: Table A2
# Protocol: Retroviral Production: The BRAF-KIAA1549 fusion mutant was subcloned into pMXs-IRES-Blasticidin (RTV-016, Cell Biolabs, San Diego, CA). Retrovirus was produced by transfection of HEK 293T cells with the retroviral BRAF mutant expression vector pMXs-IRES-Blasticidin (RTV-016, Cell Biolabs), pCMV-Gag-Pol vector and pCMV-VSV-G-Envelope vector. Briefly, HEK 293T cells were plated in Poly-D-lysine coated 6-well plate (2.5×10^5 cells per well) and incubated overnight. […]
Recorded GI50 values for a group of molecules are listed next.

These recorded examples may help you get a feel for the data.
CNc1cc2ncc(-c3cc(NC(=O)c4cccc(C5(C#N)CC5)c4)cnc3C)cc2cn1 [Compound 191]: 20 to 100 nM
CNc1cc2ncc(-c3cc(NC(=O)c4cnc5n4C[C@H](C)CC5)cnc3C)cc2cn1 (single isomer, unassigned) [Compound 259]: 20 to 100 nM
CNc1cc2ncc(-c3cc(NC(=O)c4nccc5c4OCCC5O)cnc3C)cc2cn1 (centres unmarked) [Compound 211]: ≥ 500 nM
CNc1cc2ncc(-c3cc(NC(=O)c4n[nH]c5c4CN(C)CC5)cnc3C)cc2cn1 [Compound 244]: ≥ 500 nM

Now take the following molecule into account.
Problem: Note down GI50 recorded for CNc1cc2ncc(-c3cc(NC(=O)N4CC[C@@H](CC(F)(F)F)C4)ccc3C)cc2cn1 (single isomer, unassigned) [Compound 267]
Result: < 20 nM

* * *

Recorded GI50 values for a group of compounds are listed next.
# TARGET OR SYSTEM: BaF3 BRAF-KIAA1549 fusion cells (Homo sapiens)
# Construct: The BRAF-KIAA1549 fusion mutant was subcloned into pMXs-IRES-Blasticidin (RTV-016, Cell Biolabs, San Diego, CA); No tag given; Q9HCM3 (UPF0606 protein KIAA1549)
# ASSAY TEXT: BaF3 BRAF-KIAA1549 fusion cell proliferation assay (CellTiterGlo, 96 hours)
# Format: cell-based
# RUN CONDITIONS: Table A2

These recorded examples may help you get a feel for the data.
CNc1cc2ncc(-c3cc(NC(=O)c4cc([C@H](O)C(C)(F)F)ccn4)cnc3C)cc2cn1 (single isomer, unassigned): 20 to 100 nM
CNc1cc2ncc(-c3cc(NC(=O)c4ccnc(C(C)(C)F)c4)c(F)cc3C)cc2cn1: 20 to 100 nM
CNc1cc2ncc(-c3cc(NC(=O)c4cnc5n4CC(C(F)F)CC5)ccc3C)cc2cn1 (stereo not drawn): 20 to 100 nM
Cc1ncc(NC(=O)c2cc(C(F)(F)F)ccn2)cc1-c1ccc2c3c(ncc2c1)NC(=O)C3: < 20 nM
CNc1cc2ncc(-c3cc(NC(=O)c4cc(C(O)C5CC5)ccn4)cnc3C)cc2cn1 (stereo not drawn): 20 to 100 nM

Now take the following compound into account.
Problem: Report measured GI50 on BaF3 BRAF-KIAA1549 fusion cells (Homo sapiens); entry: CNc1cc2ncc(-c3cc(NC(=O)c4cnc5n4CC(C(F)F)CC5)cnc3C)cc2cn1 (stereo not drawn)
Result: 100 to 500 nM

* * *

# TARGET OR SYSTEM: BaF3 BRAF-KIAA1549 fusion cells (Homo sapiens)
# Construct: The BRAF-KIAA1549 fusion mutant was subcloned into pMXs-IRES-Blasticidin (RTV-016, Cell Biolabs, San Diego, CA); No tag given; Q9HCM3 (UPF0606 protein KIAA1549)
# ASSAY TEXT: BaF3 BRAF-KIAA1549 fusion cell proliferation assay (CellTiterGlo, 96 hours)
# Type: cell-based
# RUN CONDITIONS: Table A1
# Procedure: Retroviral Production: The BRAF-KIAA1549 fusion mutant was subcloned into pMXs-IRES-Blasticidin (RTV-016, Cell Biolabs, San Diego, CA). Retrovirus was produced by transfection of HEK 293T cells with the retroviral BRAF mutant expression vector pMXs-IRES-Blasticidin (RTV-016, Cell Biolabs), pCMV-Gag-Pol vector and pCMV-VSV-G-Envelope vector. Briefly, HEK 293T cells were plated in Poly-D-lysine coated 6-well plate (2.5×10^5 cells per well) and incubated overnight. […]
READOUT TYPE: GI50

These recorded examples may help you get a feel for the data.
CNc1cc2ncc(-c3cc(NC(=O)c4ccnc(C(C)(F)F)c4)cnc3C)cc2cn1: < 20 nM
CNc1cc2ncc(-c3cc(NC(=O)c4cc(C5(C#N)CC5)ccn4)cnc3C)cc2cn1: < 20 nM
CNc1cc2ncc(-c3cc(NC(=O)c4cc(C(F)(F)F)c(F)cn4)cnc3C)cc2cn1: < 20 nM
CNc1cc2ncc(-c3cc(NC(=O)c4cc(C(C)(C)C#N)ccn4)cc(F)c3C)cc2cn1: 20 to 100 nM
CNc1cc2ncc(-c3cc(NC(=O)c4nccc(C(F)(F)F)c4Cl)cnc3C)cc2cn1: 20 to 100 nM

Problem: Note down GI50 recorded for CNc1cc2ncc(-c3cc(NC(=O)c4cc(C(F)(F)F)c(OCCO)cn4)ccc3C)cc2cn1
Result: 20 to 100 nM

Problem: Note down GI50 recorded for CNc1cc2ncc(-c3cc(NC(=O)C[C@@H]4C[C@H](C(F)(F)F)CCO4)ccc3C)cc2cn1 (single isomer, unassigned)
Result: < 20 nM

Problem: Note down GI50 recorded for CNc1cc2ncc(-c3cc(NC(=O)c4cc(C(C)(C)F)ccn4)cnc3C)cc2cn1
Result: 20 to 100 nM

Problem: Note down GI50 recorded for CNc1cc2ncc(-c3cc(NC(=O)c4cc(C5(C#N)CCC5)ccn4)ccc3C)cc2cn1
Result: 20 to 100 nM

* * *

# TARGET OR SYSTEM: BaF3 BRAF-KIAA1549 fusion cells (Homo sapiens)
# Construct: The BRAF-KIAA1549 fusion mutant was subcloned into pMXs-IRES-Blasticidin (RTV-016, Cell Biolabs, San Diego, CA); No tag given; Q9HCM3 (UPF0606 protein KIAA1549)
# ASSAY TEXT: BaF3 BRAF-KIAA1549 fusion cell proliferation assay (CellTiterGlo, 96 hours)
# Type: cell-based
# RUN CONDITIONS: Table A1
READOUT TYPE: GI50

CNc1cc2ncc(-c3cc(NC(=O)c4cccc(N(C)C)c4)ccc3C)cc2cn1: < 20 nM
CNc1cc2ncc(-c3cc(NC(=O)c4cc(C(C)(C)C#N)ccn4)c(F)cc3F)cc2cn1: 20 to 100 nM
CNc1cc2ncc(-c3cc(NC(=O)[C@@H](C)n4cnc(C(F)(F)F)n4)ccc3C)cc2cn1 (single isomer, unassigned): 100 to 500 nM

Now take the following compound into account.
Problem: Note down GI50 recorded for CNc1cc2ncc(-c3cc(NC(=O)c4nccc(C(F)(F)F)c4Cl)ccc3C)cc2cn1
Result: < 20 nM

* * *

# TARGET OR SYSTEM: BaF3 BRAF-KIAA1549 fusion cells (Homo sapiens, UniProt P15056)
# Construct: The BRAF-KIAA1549 fusion mutant was subcloned into pMXs-IRES-Blasticidin (RTV-016, Cell Biolabs, San Diego, CA); No tag given; Q9HCM3 (UPF0606 protein KIAA1549)
# Sequence (P15056 whole entry, change not shown, the tested form may be a part): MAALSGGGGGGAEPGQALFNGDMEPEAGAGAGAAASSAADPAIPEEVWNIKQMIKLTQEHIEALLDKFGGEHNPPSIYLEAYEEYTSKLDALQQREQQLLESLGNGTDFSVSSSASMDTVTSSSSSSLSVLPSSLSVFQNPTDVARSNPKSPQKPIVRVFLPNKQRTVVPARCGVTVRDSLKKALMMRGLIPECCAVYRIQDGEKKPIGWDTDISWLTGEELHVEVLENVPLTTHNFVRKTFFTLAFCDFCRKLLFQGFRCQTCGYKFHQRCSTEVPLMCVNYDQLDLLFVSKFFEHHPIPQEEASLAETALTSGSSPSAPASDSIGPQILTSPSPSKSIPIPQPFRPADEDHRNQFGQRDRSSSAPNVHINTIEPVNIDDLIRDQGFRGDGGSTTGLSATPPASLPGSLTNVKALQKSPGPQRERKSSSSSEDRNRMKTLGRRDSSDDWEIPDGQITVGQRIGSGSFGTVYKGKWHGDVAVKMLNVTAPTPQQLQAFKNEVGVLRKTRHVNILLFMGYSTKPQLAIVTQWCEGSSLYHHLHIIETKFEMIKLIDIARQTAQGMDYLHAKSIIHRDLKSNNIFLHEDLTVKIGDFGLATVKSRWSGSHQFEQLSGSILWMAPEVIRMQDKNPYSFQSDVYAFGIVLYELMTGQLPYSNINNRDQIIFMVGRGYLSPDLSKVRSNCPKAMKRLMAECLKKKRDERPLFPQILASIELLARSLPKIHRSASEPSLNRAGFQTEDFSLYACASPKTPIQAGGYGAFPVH
# ASSAY TEXT: BaF3 BRAF-KIAA1549 fusion cell proliferation assay (CellTiterGlo, 96 hours)
# Format: cell-based
# RUN CONDITIONS: Table A1
READOUT TYPE: GI50

Problem: Note down GI50 recorded for CCNc1cc2ncc(-c3cc(NC(=O)c4ccnc(C5(F)CC5)c4)ccc3C)cc2cn1 [Compound 153]
Result: 20 to 100 nM

Problem: Note down GI50 recorded for CNc1cc2nc(C#N)c(-c3cc(NC(=O)c4ccnc(C(F)(F)F)c4)ccc3C)cc2cn1 [Compound 79]
Result: < 20 nM

Problem: Note down GI50 recorded for CNc1cc2ncc(-c3cc(NC(=O)c4cc(C5(C#N)CCC5)ccn4)cnc3C)cc2cn1 [Compound 31]
Result: 20 to 100 nM

Problem: Note down GI50 recorded for CNc1cc2ncc(-c3cc(NC(=O)c4ccnc(C5(F)CC5)c4)ccc3C)cc2cn1 [Compound 18]
Result: < 20 nM

Problem: Note down GI50 recorded for Cc1ccc(NC(=O)c2ccnc(C3(F)CC3)c2)cc1-c1cnc2cc(N)ncc2c1 [Compound 154]
Result: < 20 nM

* * *

# TARGET OR SYSTEM: BaF3 BRAF-KIAA1549 fusion cells (Homo sapiens, UniProt P15056)
# Construct: The BRAF-KIAA1549 fusion mutant was subcloned into pMXs-IRES-Blasticidin (RTV-016, Cell Biolabs, San Diego, CA); No tag given; Q9HCM3 (UPF0606 protein KIAA1549)
# ASSAY TEXT: BaF3 BRAF-KIAA1549 fusion cell proliferation assay (CellTiterGlo, 96 hours)
# Type: cell-based
# RUN CONDITIONS: Table A2
# Procedure: Retroviral Production: The BRAF-KIAA1549 fusion mutant was subcloned into pMXs-IRES-Blasticidin (RTV-016, Cell Biolabs, San Diego, CA). Retrovirus was produced by transfection of HEK 293T cells with the retroviral BRAF mutant expression vector pMXs-IRES-Blasticidin (RTV-016, Cell Biolabs), pCMV-Gag-Pol vector and pCMV-VSV-G-Envelope vector. Briefly, HEK 293T cells were plated in Poly-D-lysine coated 6-well plate (2.5×10^5 cells per well) and incubated overnight. […]
READOUT TYPE: GI50

CNc1cc2ncc(-c3cc(NC(=O)c4cnc5n4CCCC5)ccc3C)cc2cn1: 100 to 500 nM
CNc1cc2ncc(-c3cc(NC(=O)c4cc(C(O)C(C)C)ccn4)cnc3C)cc2cn1 (stereo not shown): 20 to 100 nM
CNCC(F)(F)c1cccc(C(=O)Nc2cnc(C)c(-c3cnc4cc(NC)ncc4c3)c2)n1: ≥ 500 nM
CNc1cc2ncc(-c3cc(NC(=O)c4c[nH]c5ccccc45)cnc3C)cc2cn1: 20 to 100 nM
CNc1cc2ncc(-c3cc(NC(=O)c4noc5c4CC(F)(F)CC5)cnc3C)cc2cn1: 20 to 100 nM

Problem: Note down GI50 recorded for CNc1cc2ncc(-c3cc(NC(=O)c4cc(C(NC)C(F)(F)F)ccn4)ccc3C)cc2cn1 (stereo not shown)
Result: < 20 nM

Problem: Note down GI50 recorded for CNc1cc2ncc(-c3cc(NC(=O)c4n[nH]c5c4CCCC5(C)C)ccc3C)cc2cn1
Result: 20 to 100 nM

Problem: Note down GI50 recorded for CNc1cc2ncc(-c3cc(NC(=O)c4cnc5n4CC(C)CC5)ccc3C)cc2cn1 (stereo not shown)
Result: < 20 nM

Problem: Note down GI50 recorded for CNc1cc2ncc(-c3cc(NC(=O)c4cc(C(F)(F)F)ccn4)c(F)cc3C)cc2cn1
Result: 100 to 500 nM

Problem: Note down GI50 recorded for CNc1cc2ncc(-c3c(C)ncc(NC(=O)c4cc(C(C)(C)C#N)ccn4)c3Cl)cc2cn1
Result: ≥ 500 nM

Problem: Note down GI50 recorded for CNc1cc2ncc(-c3cc(NC(=O)c4cnc5n4CCCC5C)ccc3C)cc2cn1 (stereo not shown)
Result: 20 to 100 nM

Problem: Note down GI50 recorded for CNc1cc2ncc(-c3cc(NC(=O)c4nn(C)c5c4CCCC5)cnc3C)cc2cn1
Result: 20 to 100 nM

Problem: Note down GI50 recorded for CCC(OC)c1ccnc(C(=O)Nc2cnc(C)c(-c3cnc4cc(NC)ncc4c3)c2)c1 (stereo not shown)
Result: 20 to 100 nM
